Test: Pharmacokinetics test of mice
Type: in vivo, C57BL/6J male mice
Conditions: mouse, plasma, iv, 3 mg/kg, i.v. 3 mpk
ASSAY METRIC: clearance (mL/min/kg)
Your answer should be a plain number; it is taken to be in mL/min/kg.

I would be grateful if you could share the reported clearance for CC(C)(C)[C@H](NC(=O)C(F)(F)F)C(=O)N1[C@H]2C[C@@H]([C@H]1C(=O)N[C@H](C#N)C[C@@H]1CCNC1=O)C1(CC1)C2 .
68.5

* * *

Experiment: Tissue distribution test in rats (after Ritonavir)
Assay type: in vivo, SD male rats
Details: rat, po, 30 mg/kg, 30 mpk intragastric, with Ritonavir, plasma
ASSAY METRIC: AUC(0-t) at 6 h (µM·h)
Your answer should be a plain number; it is taken to be in µM·h.

I would be grateful if you could share the reported AUC(0-t) at 6 h for CC(C)(C)[C@H](NC(=O)C(F)(F)F)C(=O)N1[C@H]2C[C@@H]([C@H]1C(=O)N[C@H](C#N)C[C@@H]1CCNC1=O)C1(CC1)C2 .
29.4

Data credit: patent US20240158373A1
